tested on: CCRIS mutagenicity, Ames/micronucleus/aberration tests; assay: CCRIS mutagenicity studies; details: Test System: AMES SALMONELLA TYPHIMURIUM; Strain/Indicator: TA1538; Metabolic Activation: HAMSTER, LIVER, S-9; Method: STANDARD PLATE
Calls of active or inactive are those of the source. No rule for the calls is given here.
Can you answer with just one of these options? TRUE (active), FALSE (inactive)

molecule_smiles | tested_system | discrete_label
COc1cc(-c2ccc(N=C=O)c(OC)c2)ccc1N=C=O | CCRIS mutagenicity, Ames/micronucleus/aberration tests | TRUE
COc1cc(-c2ccc(N)c(OC)c2)ccc1N | CCRIS mutagenicity, Ames/micronucleus/aberration tests | TRUE
CC(=O)c1ccc(S(=O)(=O)NC(=O)NC2CCCCC2)cc1 | CCRIS mutagenicity, Ames/micronucleus/aberration tests | FALSE
Nc1ccc2cc3ccc(N)cc3nc2c1 | CCRIS mutagenicity, Ames/micronucleus/aberration tests | TRUE
CCOc1ccc(NC(C)=O)cc1N | CCRIS mutagenicity, Ames/micronucleus/aberration tests | TRUE

Consider now this further molecule.
How was Cc1cc(-c2ccc(N=Nc3cc(S(=O)(=O)O)c4ccccc4c3N)c(C)c2)ccc1N=Nc1cc(S(=O)(=O)O)c2ccccc2c1N classified in this test? FALSE
